Test system: KRAS patient-derived spheroids with HUVEC/MSC, viability
PROTOCOL_NOTES: Anticancer human tumor 323965-272-R-J2-PDC patient-derived pancreatic carcinoma cell line growth inhibition [KRAS2]; active = viability on the fitted dose curve at most 10% of control; inactive = the rest
MEASUREMENT_CONTEXT: second compound 1 µM; first compound 0.1 µM
Lab note: assign the record to one of true for active, false for inactive

{"COMPOUND": "COc1cc(Nc2ncc3c(n2)-c2ccc(Cl)cc2C(c2c(F)cccc2OC)=NC3)ccc1C(=O)O + CNCc1ccccc1-c1csc(C(C)Nc2nc(C)nc3cc(OC)c(OC)cc23)c1", "CATEGORY_LABEL": "false"}
{"COMPOUND": "Cn1nccc1Nc1nccc(-c2cc3c(s2)C(C)(C)N(CCN2CCOCC2)C3=O)n1 + C=CC(=O)N1CCN(c2nc(=O)n(-c3c(C)ccnc3C(C)C)c3nc(-c4c(O)cccc4F)c(F)cc23)C(C)C1", "CATEGORY_LABEL": "false"}

Okay, next one:
INPUT: Hi team, can someone confirm the assay call for CC1COCCN1c1cc(-c2ccnn2C)c2ccnc(-c3ccn[nH]3)c2n1 (stereo not given) + CC1OCC2(CCN(c3cnc(Sc4ccnc(N)c4Cl)c(N)n3)CC2)C1N ?
OUTPUT: true

----------
Tested on: KRAS patient-derived spheroids with HUVEC/MSC, viability
PROTOCOL_NOTES: Anticancer human tumor 323965-272-R-J2-PDC cell line growth inhibition [KRAS2];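 note: spheroids exposed to agents for 7 days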;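 for viability, T/C: 100% = DMSO vehicle control viability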
MEASUREMENT_CONTEXT: compound 0.0316 µM; stronger effect = lower value
Provide the reported viability, T/C of each item.

Sample answers from the record:
{"MOLECULE": "CC1COCCN1c1cc(-c2ccnn2C)c2ccnc(-c3ccn[nH]3)c2n1 (configuration not stated)", "MEASUREMENT": "39.8% [middle of 5 runs]"}
{"MOLECULE": "COc1cc(OC)cc(N(CCNC(C)C)c2ccc3ncc(-c4cnn(C)c4)nc3c2)c1", "MEASUREMENT": "102% [middle of 5 runs]"}
{"MOLECULE": "Cn1nccc1Nc1nccc(-c2cc3c(s2)C(C)(C)N(CCN2CCOCC2)C3=O)n1", "MEASUREMENT": "92.9% [middle of 5 runs]"}
{"MOLECULE": "C=CC(=O)N1CCN(c2nc(OCC3CCCN3C)nc3c2CCN(c2cccc4cccc(C)c24)C3)CC1CC#N (configuration not stated)", "MEASUREMENT": "70.1% [middle of 17 runs]"}
{"MOLECULE": "CC1(C)CCC(CN2CCN(c3ccc(C(=O)NS(=O)(=O)c4ccc(NCC5CCOCC5)c([N+](=O)[O-])c4)c(Oc4cnc5[nH]ccc5c4)c3)CC2)=C(c2ccc(Cl)cc2)C1", "MEASUREMENT": "100% [middle of 5 runs]"}

Give measured viability, T/C for every item shown.
1. CC(=O)OC12COC1CC(O)C1(C)C(=O)C(O)C3=C(C)C(OC(=O)C(O)C(NC(=O)OC(C)(C)C)c4ccccc4)CC(O)(C(OC(=O)c4ccccc4)C21)C3(C)C (configuration not stated)
2. CN(C)C/C=C/C(=O)Nc1cc2c(Nc3ccc(F)c(Cl)c3)ncnc2cc1O[C@H]1CCOC1
3. COc1cc2nccc(Oc3ccc(NC(=O)C4(C(=O)Nc5ccc(F)cc5)CC4)cc3)c2cc1OC
4. Cn1ncnc1[C@H]1c2n[nH]c(=O)c3cc(F)cc(c23)N[C@@H]1c1ccc(F)cc1
5. O=C(c1cc(Cc2n[nH]c(=O)c3ccccc23)ccc1F)N1CCN(C(=O)C2CC2)CC1
6. CC(=O)Nc1cccc(-n2c(=O)n(C3CC3)c(=O)c3c(Nc4ccc(I)cc4F)n(C)c(=O)c(C)c32)c1
7. COc1cc(Nc2ncc3c(n2)-c2ccc(Cl)cc2C(c2c(F)cccc2OC)=NC3)ccc1C(=O)O
8. COC(=O)c1ccc2c(C(=Nc3ccc(N(C)C(=O)CN4CCN(C)CC4)cc3)c3ccccc3)c(O)[nH]c2c1

OUTPUT:
35.4% [middle of 5 runs]
74.5% [middle of 5 runs]
100% [middle of 5 runs]
101% [middle of 4 runs]
102% [middle of 5 runs]
31.2% [middle of 5 runs]
91.7% [middle of 5 runs]
97.4% [middle of 5 runs]

Give measured viability, T/C for every item shown.
1. CC(C)n1nc(-c2ccc3oc(N)nc3c2)c2c(N)ncnc21
2. CC(C)NCC(C(=O)N1CCN(c2ncnc3c2C(C)CC3O)CC1)c1ccc(Cl)cc1 (configuration not stated)
3. CCN1CCN(Cc2ccc(Nc3ncc(F)c(-c4cc(F)c5nc(C)n(C(C)C)c5c4)n3)nc2)CC1
4. CCNC(=O)CC1N=C(c2ccc(Cl)cc2)c2cc(OC)ccc2-n2c(C)nnc21 (configuration not stated)

OUTPUT:
1. 24.4% [middle of 5 runs]
2. 97.7% [middle of 5 runs]
3. 76.6% [middle of 5 runs]
4. 97.2% [middle of 5 runs]

----------
Tested on: KRAS patient-derived spheroids with HUVEC/MSC, viability
PROTOCOL_NOTES: Anticancer human tumor 323965-272-R-J2-PDC cell line growth inhibition [KRAS2];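 note: spheroids exposed to agents for 7 days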;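 for viability, T/C: 100% = DMSO vehicle control viability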
MEASUREMENT_CONTEXT: second compound 10 µM; first compound 0.0316 µM; stronger effect = lower value
MEASURED_QUANTITY: viability, T/C (%)
Answers are plain numbers, in %.

Give measured viability, T/C for every item shown.
1. Cn1nccc1Nc1nccc(-c2cc3c(s2)C(C)(C)N(CCN2CCOCC2)C3=O)n1 + COc1cc2nc(C)nc(NC(C)c3cc(N)cc(C(F)(F)F)c3)c2cc1OC1CCOC1
2. CN(C)C/C=C/C(=O)Nc1cc2c(Nc3ccc(F)c(Cl)c3)ncnc2cc1O[C@H]1CCOC1 + C=CC(=O)N1CCN(c2nc(=O)n(-c3c(C)ccnc3C(C)C)c3nc(-c4c(O)cccc4F)c(F)cc23)C(C)C1
3. CC1COCCN1c1cc(-c2ccnn2C)c2ccnc(-c3ccn[nH]3)c2n1 (centres undefined) + CNCc1ccccc1-c1csc(C(C)Nc2nc(C)nc3cc(OC)c(OC)cc23)c1
4. Cn1nccc1Nc1nccc(-c2cc3c(s2)C(C)(C)N(CCN2CCOCC2)C3=O)n1 + CC1OCC2(CCN(c3cnc(Sc4ccnc(N)c4Cl)c(N)n3)CC2)C1N
5. Cn1ncnc1[C@H]1c2n[nH]c(=O)c3cc(F)cc(c23)N[C@@H]1c1ccc(F)cc1 + C=CC(=O)N1CCN(c2nc(=O)n(-c3c(C)ccnc3C(C)C)c3nc(-c4c(O)cccc4F)c(F)cc23)C(C)C1
6. CC(C)n1nc(-c2ccc3oc(N)nc3c2)c2c(N)ncnc21 + CNCc1ccccc1-c1csc(C(C)Nc2nc(C)nc3cc(OC)c(OC)cc23)c1
7. COC(=O)c1ccc2c(C(=Nc3ccc(N(C)C(=O)CN4CCN(C)CC4)cc3)c3ccccc3)c(O)[nH]c2c1 + COc1cc2nc(C)nc(NC(C)c3cc(N)cc(C(F)(F)F)c3)c2cc1OC1CCOC1
8. COc1cc(Nc2ncc3c(n2)-c2ccc(Cl)cc2C(c2c(F)cccc2OC)=NC3)ccc1C(=O)O + CNCc1ccccc1-c1csc(C(C)Nc2nc(C)nc3cc(OC)c(OC)cc23)c1

OUTPUT:
1. 75.5
2. 45.7
3. 0.13
4. 14.4
5. 50.9
6. 0.12
7. 90.8
8. 0.29

INPUT: Value lookup for viability, T/C; key = CC1COCCN1c1cc(-c2ccnn2C)c2ccnc(-c3ccn[nH]3)c2n1 (centres undefined) + COc1cc2nc(C)nc(NC(C)c3cc(N)cc(C(F)(F)F)c3)c2cc1OC1CCOC1
OUTPUT: 20.9

----------
Provide the reported viability, T/C of each item.
Test system: KRAS patient-derived spheroids with HUVEC/MSC, viability
PROTOCOL_NOTES: Anticancer human tumor 323965-272-R-J2-PDC cell line growth inhibition [KRAS2];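 note: spheroids exposed to agents for 7 days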;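 for viability, T/C: 100% = DMSO vehicle control viability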
MEASUREMENT_CONTEXT: second compound 0.1 µM; first compound 1 µM; stronger effect = lower value
One number for each entry, in %.

Give measured viability, T/C for every item shown.
1. CCN1CCN(Cc2ccc(Nc3ncc(F)c(-c4cc(F)c5nc(C)n(C(C)C)c5c4)n3)nc2)CC1 + CC1OCC2(CCN(c3cnc(Sc4ccnc(N)c4Cl)c(N)n3)CC2)C1N
2. COc1cc2nccc(Oc3ccc(NC(=O)C4(C(=O)Nc5ccc(F)cc5)CC4)cc3)c2cc1OC + COc1cc2nc(C)nc(NC(C)c3cc(N)cc(C(F)(F)F)c3)c2cc1OC1CCOC1

OUTPUT:
1. 49.7
2. 86.5

INPUT: Value lookup for viability, T/C; key = COc1cc2nccc(Oc3ccc(NC(=O)C4(C(=O)Nc5ccc(F)cc5)CC4)cc3)c2cc1OC + CC1OCC2(CCN(c3cnc(Sc4ccnc(N)c4Cl)c(N)n3)CC2)C1N
OUTPUT: 87.4

----------
Provide the reported pIC50 of each item.
System: KRAS patient-derived spheroids with HUVEC/MSC, viability
PROTOCOL_NOTES: Anticancer human tumor 323965-272-R-J2-PDC cell line growth inhibition [KRAS2];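 note: spheroids exposed to agents for 7 days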
MEASUREMENT_CONTEXT: curve of first compound; second compound 1 µM
One number for each entry, as −log10 of the molar value.

{"COMPOUND": "CCNC(=O)CC1N=C(c2ccc(Cl)cc2)c2cc(OC)ccc2-n2c(C)nnc21 (stereo not given) + C=CC(=O)N1CCN(c2nc(OCC3CCCN3C)nc3c2CCN(c2cccc4cccc(C)c24)C3)CC1CC#N", "MEASUREMENT": 6.95}
{"COMPOUND": "COC(=O)c1ccc2c(C(=Nc3ccc(N(C)C(=O)CN4CCN(C)CC4)cc3)c3ccccc3)c(O)[nH]c2c1 + C=CC(=O)N1CCN(c2nc(OCC3CCCN3C)nc3c2CCN(c2cccc4cccc(C)c24)C3)CC1CC#N", "MEASUREMENT": 6.06}
{"COMPOUND": "O=C(c1cc(Cc2n[nH]c(=O)c3ccccc23)ccc1F)N1CCN(C(=O)C2CC2)CC1 + C=CC(=O)N1CCN(c2nc(OCC3CCCN3C)nc3c2CCN(c2cccc4cccc(C)c24)C3)CC1CC#N", "MEASUREMENT": 5.20}

INPUT: Request - read-out pIC50 | tested on KRAS patient-derived spheroids with HUVEC/MSC, viability | compound CC1COCCN1c1cc(-c2ccnn2C)c2ccnc(-c3ccn[nH]3)c2n1 (stereo not given) + COc1cc2nc(C)nc(NC(C)c3cc(N)cc(C(F)(F)F)c3)c2cc1OC1CCOC1
OUTPUT: 7.95
